System: corn
experiment_summary: Foliar spread test for upland field
Assay type: in vivo
Design: key: 0: normal development; 1: Less damaged; 2: Slightly damaged; 3: Moderately damaged; 4: Severely damaged; 5: All killed
protocol_conditions: foliar spray 500 ppm, 3 weeks, rank vs non-treated
attribute_measured: Effects Corn
Provide a numeric answer; units are not to be included.

Study these solved cases before continuing.
- compound: "CCC(Oc1cccc(C(F)(F)F)c1)c1nc2cc(Cl)ccc2o1 (centres unmarked)"
  Effects Corn: 3
- compound: "CCC(Oc1ccc(F)c(C(F)(F)F)c1)c1nc2cc(Br)ccc2o1 (centres unmarked)"
  Effects Corn: 2
- compound: "CCC(Oc1ccc(Cl)c(C(F)(F)F)c1)c1nc2cc(Cl)ccc2o1 (centres unmarked)"
  Effects Corn: 2
- compound: "CC(Oc1cccc(C(F)(F)F)c1)c1nc2ccc(C(F)(F)F)cc2o1 (centres unmarked)"
  Effects Corn: 1

Now take the following compound into account.
Hey, corn data for CCCC(Oc1cccc(C(F)(F)F)c1)c1nc2cc(Cl)ccc2o1 (centres unmarked) : Effects Corn came out at 3

----------
System: livid amaranth
experiment_summary: Foliar spread test for upland field
Format: in vivo, Amaranthus lividus
Set-up: key: 0: normal development; 1: Less damaged; 2: Slightly damaged; 3: Moderately damaged; 4: Severely damaged; 5: All killed
protocol_conditions: foliar spray 500 ppm, 3 weeks, rank vs non-treated
Measured Effects Livid amaranth of individual entries
Provide a numeric answer; units are not to be included.

CCC(Oc1ccc(F)c(C(F)(F)F)c1)c1nc2cc(Br)ccc2o1 (centres unmarked) [Compound 165] has a reported Effects Livid amaranth of 4

CCC(Oc1cccc(OC(F)(F)F)c1)c1nc2cc(C#N)c(C#N)cc2o1 (centres unmarked) [Compound 527] has a reported Effects Livid amaranth of 5

----------
Measured Effect Bulrush of individual entries
System: bulrush
experiment_summary: Herbicidal test for paddy field
Type: in vivo, Scrips juncoides
Parameters: key: 0: normal development; 1: Less damaged; 2: Slightly damaged; 3: Moderately damaged; 4: Severely damaged; 5: All killed
protocol_conditions: paddy field pot, 500 g/ha dropwise at 1.5 leaf stage of barnyardgrass, 3 weeks, rank vs non-treated
Provide a numeric answer; units are not to be included.

Hey, bulrush data for CCCC(Oc1ccc(F)c(C(F)(F)F)c1)c1nc2cc(Cl)ccc2o1 (centres unmarked) : Effect Bulrush came out at 5

Hey, bulrush data for CCC(Oc1ccc(F)c(C(F)(F)F)c1)c1nc2cc(F)c(F)cc2o1 (centres unmarked) : Effect Bulrush came out at 4

Hey, bulrush data for CCC(Oc1ccc(F)c(C(F)(F)F)c1)c1nc2cc([N+](=O)[O-])ccc2o1 (centres unmarked) : Effect Bulrush came out at 5

Hey, bulrush data for CCC(Oc1ccc(F)c(C(F)(F)F)c1)c1nc2cc(C#N)c(Cl)cc2o1 (centres unmarked) : Effect Bulrush came out at 3

Hey, bulrush data for CCCC(Oc1cccc(C(F)(F)F)c1)c1nc2cc(C#N)c(Cl)cc2o1 (centres unmarked) : Effect Bulrush came out at 5

Hey, bulrush data for CCC(Oc1cccc(C#N)c1)c1nc2cc(Cl)ccc2o1 (centres unmarked) : Effect Bulrush came out at 4

----------
Measured Effects Annual bluegrass of individual entries
System: annual bluegrass
experiment_summary: Foliar spread test for upland field
Format: in vivo, Poa annua
Parameters: key: 0: normal development; 1: Less damaged; 2: Slightly damaged; 3: Moderately damaged; 4: Severely damaged; 5: All killed
protocol_conditions: foliar spray 500 ppm, 3 weeks, rank vs non-treated
Provide a numeric answer; units are not to be included.

- molecule: "CCCC(Oc1cccc(C(F)(F)F)c1)c1nc2cc(C(F)(F)F)ccc2o1 (centres unmarked)"
  Effects Annual bluegrass: 4
- molecule: "CCC(Oc1ccc(Cl)c(C(F)(F)F)c1)c1nc2cc(C#N)c(Cl)cc2o1 (centres unmarked)"
  Effects Annual bluegrass: 4
- molecule: "CCC(Oc1ccc(Cl)c(C(F)(F)F)c1)c1nc2cc(F)ccc2o1 (centres unmarked)"
  Effects Annual bluegrass: 1

CCC(Oc1cccc(S(C)(=O)=O)c1)c1nc2cc(S(C)(=O)=O)ccc2o1 (centres unmarked) has a reported Effects Annual bluegrass of 5

CCC(Oc1cccc(OC(F)(F)F)c1)c1nc2cc([N+](=O)[O-])ccc2o1 (centres unmarked) has a reported Effects Annual bluegrass of 4

CCCC(Oc1ccc(F)c(C(F)(F)F)c1)c1nc2cc(C#N)c(Cl)cc2o1 (centres unmarked) has a reported Effects Annual bluegrass of 4

CCCC(Oc1cccc(C(F)(F)F)c1)c1nc2cc(C#N)ccc2o1 (centres unmarked) has a reported Effects Annual bluegrass of 4

CCCC(Oc1cccc(C(F)(F)F)c1)c1nc2cc(Cl)ccc2o1 (centres unmarked) has a reported Effects Annual bluegrass of 3
